System: Plasmodium falciparum
Experiment: Inhibition of Plasmodium falciparum recombinant falcipain-2 at 10 uM by microtiter plate spectrofluorimetry

- COMPOUND: "Cc1cccc(OCC(=O)Nc2nc(-c3ccc(S(=O)(=O)N4CCOCC4)cc3)cs2)c1"
  inhibition [%]: 21.3
- COMPOUND: "CC(=O)c1ccc(NC(=O)CSc2nnc(COc3cccc4cccnc34)n2-c2ccccc2)cc1"
  inhibition [%]: 21.9
- COMPOUND: "COc1cccc(/C=N/NC(=O)c2ccn(Cc3ccc(Cl)cc3Cl)n2)c1O"
  inhibition [%]: 21.8
- COMPOUND: "COc1cc(NS(=O)(=O)c2ccc(NC(=O)c3cc(-c4cccc(C)c4)nc4ccccc34)cc2)ncn1"
  inhibition [%]: 26.9
- COMPOUND: "CC(=O)c1ccc(-c2ccc(/C=N/Nc3nc(N4CCCCC4)nc(N4CCCCC4)n3)o2)cc1"
  inhibition [%]: 27.9
- COMPOUND: "O=C(NC(Cc1c[nH]c2ccccc12)C(=O)NCc1ccccc1)Oc1ccccc1 (stereo unspecified)"
  inhibition [%]: 29.4
